Exercise: state measured abundance fitness for each of the variants provided.
B1: Ankyrin repeat and SOCS box protein 14, residues 532 to 572; numbered along this chain, A6NK59 (parent)
chain: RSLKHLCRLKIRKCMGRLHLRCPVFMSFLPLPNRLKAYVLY

Variants of: B1
Assay: abundance fitness (aPCA) (normalised: wild type 0, dead -1); higher = more abundant; growth selection in yeast, the domain comes from the species named
Details: Homo sapiens
Numbers only.

Examples with their reported abundance fitness follow.
R8G; -0.004
L20F; -0.026
V39S; -0.779

Each variant below has a reported value. Please supply its abundance fitness.
1. N33C
2. L31H
3. G16L
4. L20Q
5. C14K

1: -0.151; 2: -0.434; 3: 0.102; 4: -0.087; 5: -0.165

Each variant below has a reported value. Please supply its abundance fitness.
1. Y41N
2. H5M
3. G16T
4. M15D
5. N33S
6. V24F

1: -0.052; 2: 0.057; 3: 0.12; 4: -1; 5: 0.105; 6: 0.469

Each variant below has a reported value. Please supply its abundance fitness.
1. K36C
2. S27L
3. P23E
4. N33Q
5. K4N
6. R12M
7. H19Q
8. M15H

-0.398
-1.09
0.36
0.111
-0.344
0.083
-0.004
-0.794

Each variant below has a reported value. Please supply its abundance fitness.
1. F28M
2. R34G
3. C14P
4. Y41S
5. H5P

-0.127
-0.29
-0.3
0.356
-0.6
